Listing of recorded pIC50 by entry.
Molecular target: human ENT1 (Homo sapiens, UniProt Q99808)
Construct: JAR cells expressing ENT1 were purchased from ATCC; host or cells: JAR cells
Sequence (Q99808 whole entry): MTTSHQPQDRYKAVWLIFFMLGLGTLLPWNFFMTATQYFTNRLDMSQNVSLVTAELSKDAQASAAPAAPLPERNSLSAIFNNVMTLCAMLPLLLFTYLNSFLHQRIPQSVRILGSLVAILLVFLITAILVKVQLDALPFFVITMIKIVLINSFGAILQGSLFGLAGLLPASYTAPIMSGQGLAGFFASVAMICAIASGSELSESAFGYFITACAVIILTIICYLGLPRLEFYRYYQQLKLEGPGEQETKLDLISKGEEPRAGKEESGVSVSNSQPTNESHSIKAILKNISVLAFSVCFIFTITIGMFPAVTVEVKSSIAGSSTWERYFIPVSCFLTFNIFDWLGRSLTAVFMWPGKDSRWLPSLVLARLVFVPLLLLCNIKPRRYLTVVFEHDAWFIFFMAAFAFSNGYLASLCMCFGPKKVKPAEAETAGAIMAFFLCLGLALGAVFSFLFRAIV
Experiment: ENT1 binding assay (competition with Sahenta-DY647 on JAR cells)
Details: competition with SAHENTA-DY647 binding; IC50 categorized; read-out: Binding Assay IC50
pIC50: −log10 of the molar value.

For orientation, consider the following solved cases.
> print(dat)
                                   compound  reported.measurement
1  C[C@H]1O[C@@H](n2cnc3c(OCc4ccc(OC(F)F)cc4)nc(Cl)nc32)[C@H](O)[C@@H]1O [Compound 161]          7.70 to 9.00
2  C[C@H]1O[C@@H](n2cnc3c(NCc4ccc(N5CCCC5=O)cc4)ncnc32)[C@H](O)[C@@H]1O [Compound 387]                < 6.30

Provide one value: measured pIC50 of C[C@H]1O[C@@H](n2cnc3c(NCc4cccc(OC(F)(F)F)c4)ncnc32)[C@H](O)[C@@H]1O [Compound 335] < 6.30

Provide one value: measured pIC50 of C[C@H]1O[C@@H](n2cnc3c(OCc4ncc(F)cc4F)ncnc32)[C@H](O)[C@@H]1O [Compound 362] < 6.30

Provide one value: measured pIC50 of C[C@H]1O[C@@H](n2c(NCCCO)nc3c(OCc4ccc(C#N)cc4)ncnc32)[C@H](O)[C@@H]1O [Compound 43] 6.30 to 7.70

Provide one value: measured pIC50 of C[C@H]1O[C@@H](n2c(NC3CCCC3)nc3c(OCc4ccccc4)ncnc32)[C@H](O)[C@@H]1O [Compound 5] 7.70 to 9.00

Provide one value: measured pIC50 of C[C@H]1O[C@@H](n2cnc3c(N4CCC(c5ccc([N+](=O)[O-])cc5)C4)ncnc32)[C@H](O)[C@@H]1O (stereo partly shown) [Compound 315] < 6.30
